Property: T/C; scope: individual compounds
Tested on: P388
protocol notes: Antileukemic activity against mouse P388 cells allografted in mouse at 6.25 mg/kg administered daily as single dose relative to control
Type: functional

Below, each entry is followed by its recorded T/C result.
- compound: "C[n+]1cc2cc3c(cc2c2ccccc21)OCO3.[Cl-]"
  T/C: "129%"
- compound: "Oc1cc2c3c(c1)c1cc4c(cc1c[n+]3CC2)OCO4.[Cl-]"
  T/C: "151%"
- compound: "[Cl-].c1cc2c3c(c1)c1cc4c(cc1c[n+]3CCC2)OCO4"
  T/C: "126%"
- compound: "[Cl-].c1cc2c3c(c1)c1cc4c(cc1c[n+]3CC2)OCO4 [ANHYDROLYCORINIUM CHLORIDE]"
  T/C: "127%"
- compound: "[O-]c1cc2c3c(c1)c1cc4c(cc1c[n+]3CC2)OCO4 [UNGEREMINE]"
  T/C: "136%"

Moving on to the next compound.
Please fill in: T/C reported for COS(=O)(=O)[O-].C[n+]1cc2ccccc2c2ccccc21 = 117%

====

# Activity per record follows
Test system: Mus musculus
protocol notes: Toxicity in mouse allografted with mouse P388 cells assessed as change in body weight at 25 mg/kg administered daily as single dose
Assay type: organism-based
Design: dose 25 mg/kg
cond: in vivo
Reply numerically in g, unit not repeated.

Below are worked cases with known answers.
- structure as smiles: "C[n+]1cc2cc3c(cc2c2ccccc21)OCO3.[Cl-]"
  scale unit: "g"
  Activity: -2.5
- structure as smiles: "COc1cc2c[n+]3c4c(cccc4c2cc1OC)CCC3.[Cl-]"
  scale unit: "g"
  Activity: -0.1
- structure as smiles: "COS(=O)(=O)[O-].C[n+]1cc2ccccc2c2ccccc21"
  scale unit: "g"
  Activity: -3.2
- structure as smiles: "[Cl-].c1cc2c3c(c1)c1cc4c(cc1c[n+]3CCC2)OCO4"
  scale unit: "g"
  Activity: -3.3
- structure as smiles: "COc1cc2c[n+](C)c3ccccc3c2cc1OC.[Cl-]"
  scale unit: "g"
  Activity: -1

Shifting focus to the compound that follows.
Kindly note the recorded Activity for Oc1cc2c3c(c1)c1cc4c(cc1c[n+]3CC2)OCO4.[Cl-] , which is -3.9

====

System: P388
protocol notes: Antileukemic activity against mouse P388 cells allografted in mouse at 50 mg/kg administered daily as single dose relative to control
Type: functional
reported property: T/C (%)
Reply numerically in %, unit not repeated.

- structure as smiles: "COS(=O)(=O)[O-].C[n+]1cc2ccccc2c2ccccc21"
  T/C, %: 113
- structure as smiles: "[O-]c1cc2c3c(c1)c1cc4c(cc1c[n+]3CC2)OCO4"
  T/C, %: 152

Lab note: measured T/C of COc1cc2c[n+]3c4c(cccc4c2cc1OC)CCC3.[Cl-] was 110

Notebook: COc1cc2c[n+](C)c3ccccc3c2cc1OC.[Cl-] , T/C read as 130

The value of T/C measured for the compound COc1cc2c[n+]3c4c(cccc4c2cc1OC)CC3.[Cl-] turned out to be 118

====

Test system: Mus musculus
protocol notes: Toxicity in mouse allografted with mouse P388 cells assessed as change in body weight at 12.5 mg/kg administered daily as single dose
Assay type: organism-based
Parameters: dose 12.5 mg/kg
cond: in vivo
reported property: Activity
Param answer (str): number followed by unit.

Use the examples below as a reference point.
- compound: "COS(=O)(=O)[O-].C[n+]1cc2ccccc2c2ccccc21"
  result: "-2.2 g"
- compound: "[Cl-].c1cc2c3c(c1)c1cc4c(cc1c[n+]3CCC2)OCO4"
  result: "-1.9 g"
- compound: "COc1cc2c[n+](C)c3ccccc3c2cc1OC.[Cl-]"
  result: "-1.1 g"
- compound: "Oc1cc2c3c(c1)c1cc4c(cc1c[n+]3CC2)OCO4.[Cl-]"
  result: "-2.4 g"
- compound: "[O-]c1cc2c3c(c1)c1cc4c(cc1c[n+]3CC2)OCO4"
  result: "-1.9 g"
- compound: "C[n+]1cc2cc3c(cc2c2ccccc21)OCO3.[Cl-]"
  result: "-1 g"
- compound: "COc1cc2c[n+]3c4c(cccc4c2cc1OC)CCC3.[Cl-]"
  result: "-1.4 g"

We next turn to a different compound, shown below.
Entry [Cl-].c1cc2c3c(c1)c1cc4c(cc1c[n+]3CC2)OCO4 [ANHYDROLYCORINIUM CHLORIDE] — recorded Activity = -2.1 g

====

Tested on: Mus musculus
protocol notes: Toxicity in mouse allografted with mouse P388 cells assessed as change in body weight at 3.13 mg/kg administered daily as single dose
Assay type: organism-based
Set-up: dose 3.13 mg/kg
cond: in vivo
reported property: Activity (g)
Write it as a number; the unit g goes unstated.

Per the record, [Cl-].c1cc2c3c(c1)c1cc4c(cc1c[n+]3CCC2)OCO4 has Activity of -0.2

Looking up [O-]c1cc2c3c(c1)c1cc4c(cc1c[n+]3CC2)OCO4 , I found its Activity recorded as -0.7

Input C[n+]1cc2cc3c(cc2c2ccccc21)OCO3.[Cl-] . Output Activity: -0.3

What the record says about COS(=O)(=O)[O-].C[n+]1cc2ccccc2c2ccccc21 : Activity is -0.8

Recorded Activity (molecule Oc1cc2c3c(c1)c1cc4c(cc1c[n+]3CC2)OCO4.[Cl-] ): -0.7

====

System: P388
protocol notes: Antileukemic activity against mouse P388 cells allografted in mouse assessed as host survival at 50 mg/kg administered daily as single dose
Format: functional, organism-based
Set-up: dose 50 mg/kg
Activity calls are given as the source filed them. No cut-off for these calls is given here.
Classes to choose from: active, inactive

- structure as smiles: "COc1cc2c[n+](C)c3ccccc3c2cc1OC.[Cl-]"
  category: "active"
- structure as smiles: "COc1cc2c[n+]3c4c(cccc4c2cc1OC)CCC3.[Cl-]"
  category: "active"
- structure as smiles: "[Cl-].c1cc2c3c(c1)c1cc4c(cc1c[n+]3CCC2)OCO4"
  category: "inactive"

Check the results log: what was the call for COS(=O)(=O)[O-].C[n+]1cc2ccccc2c2ccccc21 ? active

Could you check what this test reported for [O-]c1cc2c3c(c1)c1cc4c(cc1c[n+]3CC2)OCO4 ? active

Record request — test call for COc1cc2c[n+]3c4c(cccc4c2cc1OC)CC3.[Cl-] active

====

Tested on: Mus musculus
protocol notes: Toxicity in mouse allografted with mouse P388 cells assessed as change in body weight at 50 mg/kg administered daily as single dose
Assay type: organism-based
Design: dose 50 mg/kg
cond: in vivo
Threshold -3 g. Activity below it: y. Activity at it or above: n.

Below, 4 molecules whose answers are already recorded.
- structure as smiles: "[O-]c1cc2c3c(c1)c1cc4c(cc1c[n+]3CC2)OCO4"
  category: "y"
- structure as smiles: "COS(=O)(=O)[O-].C[n+]1cc2ccccc2c2ccccc21"
  category: "y"
- structure as smiles: "COc1cc2c[n+]3c4c(cccc4c2cc1OC)CCC3.[Cl-]"
  category: "y"
- structure as smiles: "COc1cc2c[n+](C)c3ccccc3c2cc1OC.[Cl-]"
  category: "n"

Would you kindly verify if Activity of COc1cc2c[n+]3c4c(cccc4c2cc1OC)CC3.[Cl-] is strictly less than -3 g? n

====

Recorded T/C for the following compounds
System: P388
protocol notes: Antileukemic activity against mouse P388 cells allografted in mouse at 25 mg/kg administered daily as single dose relative to control
Format: functional
Numeric only. Scale: %

Some compounds with known T/C results, for comparison:
- compound: "COc1cc2c[n+]3c4c(cccc4c2cc1OC)CCC3.[Cl-]"
  scale unit: "%"
  T/C: 108
- compound: "COc1cc2c[n+]3c4c(cccc4c2cc1OC)CC3.[Cl-]"
  scale unit: "%"
  T/C: 108
- compound: "C[n+]1cc2cc3c(cc2c2ccccc21)OCO3.[Cl-]"
  scale unit: "%"
  T/C: 151

Please find the next compound below.
// sample COS(=O)(=O)[O-].C[n+]1cc2ccccc2c2ccccc21 , its T/C was 125

====

Tested on: Mus musculus
protocol notes: Toxicity in mouse allografted with mouse P388 cells assessed as change in body weight at 6.25 mg/kg administered daily as single dose
Format: organism-based
Parameters: dose 6.25 mg/kg
cond: in vivo
reported property: Activity (g)
Response body: numeric value in g, unit text excluded.

Examples with answers:
- compound: "[Cl-].c1cc2c3c(c1)c1cc4c(cc1c[n+]3CC2)OCO4 [ANHYDROLYCORINIUM CHLORIDE]"
  Activity (g): -1.5
- compound: "COS(=O)(=O)[O-].C[n+]1cc2ccccc2c2ccccc21"
  Activity (g): -1
- compound: "[Cl-].c1cc2c3c(c1)c1cc4c(cc1c[n+]3CCC2)OCO4"
  Activity (g): -1.7
- compound: "C[n+]1cc2cc3c(cc2c2ccccc21)OCO3.[Cl-]"
  Activity (g): -0.9
- compound: "Oc1cc2c3c(c1)c1cc4c(cc1c[n+]3CC2)OCO4.[Cl-]"
  Activity (g): -1.7

# context switch: different compound, same Activity
The value of Activity measured for the compound [O-]c1cc2c3c(c1)c1cc4c(cc1c[n+]3CC2)OCO4 [UNGEREMINE] turned out to be -0.7
